System: K562 CRISPRi cells
Assay: Constant region variant library pooled growth screen, K562
Type: cell-based, human
Details: sgRNA constant region variants; activity relative to the original, un-modified constant region cr995
Each entry gets 0 (no) if its Mean relative activity stays under 0.7, and 1 (yes) if its Mean relative activity is 0.7 or above.

Example results:
# molecule, categoryLabel
data = [
    ("cr793 (nucleic acid, listed as DNA, chemistry not fully specified) guide: GTTTAAGAGCTAAGCTGGAAACAGCATAGCAAGTTTAAATAAGGCTAGTCCGTTATCAACTTGAAAAAGTGGCACCGAGTCGTTGCT", "0 (no)"),
    ("cr806 (nucleic acid, listed as DNA, chemistry not fully specified) guide: GTTTAAGAGCTAAGCTGGAAACAGCATAGCAAGTTTAAATAGGGCTAGTCCGTTATCAACTTGAAAAAGTGGCACCGAGTCGGTGCT", "1 (yes)"),
    ("cr133 (nucleic acid, listed as DNA, chemistry not fully specified) guide: GTTTAAGAGCTAAGCTGGAAACAGCATAGCAAGTTTAAATAAGGCAAGCCCGTTATCAACTTGAAAAAGTGGCACCGAGTCGGTGCT", "0 (no)"),
]

Problem: Tell me whether Mean relative activity is at least 0.7 here: cr378 (nucleic acid, listed as DNA, chemistry not fully specified) guide: GTTTAAGAGCTAAGCTGGAAACAGCATAGCAAGTTTAAATGAGGCTAGTCCGTTATCAACTTGAAAAAGTGGCACCGAGTCGGTGCT
Result: 0 (no)

Problem: Tell me whether Mean relative activity is at least 0.7 here: cr540 (nucleic acid, listed as DNA, chemistry not fully specified) guide: GTTTAAGAGCTAAGCTGGAAACAGCATAGCAACTTTAAATAATGCTAGTCAGTTATCAACTTGAAAAAGTGGCACCGAGTCGGTGCT
Result: 0 (no)

Problem: Tell me whether Mean relative activity is at least 0.7 here: cr298 (nucleic acid, listed as DNA, chemistry not fully specified) guide: GTTTAAGAGCTAAGCTGGAAACAGCATAGCAAGTTTAAATAAGGCTAGTCCTTTATCAACTTGAAAAAGTGGCACCGACTCGGTGCT
Result: 0 (no)
